Values compiled from patent EP4786492A1.

Kindly state MFI for each of the entries shown.
# ASSAYED_TARGET: human DLL3 protein expressed on CHO-K1 recombinant cells (human DLL3 extracellular segment fused to EpCAM transmembrane and intracellular regions) (human) (UniProt Q9NYJ7)
# Sequence (Q9NYJ7 other isoform, or with tags, fused parts or gaps limits assumed): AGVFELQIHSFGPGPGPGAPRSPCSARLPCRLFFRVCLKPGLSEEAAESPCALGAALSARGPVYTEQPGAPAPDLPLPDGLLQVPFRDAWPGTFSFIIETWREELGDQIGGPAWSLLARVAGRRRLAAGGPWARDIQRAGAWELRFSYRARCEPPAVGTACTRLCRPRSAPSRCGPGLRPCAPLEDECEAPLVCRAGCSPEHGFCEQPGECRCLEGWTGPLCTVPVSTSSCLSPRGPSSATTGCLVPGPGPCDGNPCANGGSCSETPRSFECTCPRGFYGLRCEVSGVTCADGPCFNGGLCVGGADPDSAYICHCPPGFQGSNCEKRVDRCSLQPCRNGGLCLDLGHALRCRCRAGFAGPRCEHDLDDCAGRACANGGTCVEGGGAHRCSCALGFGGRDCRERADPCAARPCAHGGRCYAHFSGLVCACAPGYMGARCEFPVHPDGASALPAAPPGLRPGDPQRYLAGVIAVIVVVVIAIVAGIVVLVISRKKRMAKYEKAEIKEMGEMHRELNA
# ASSAY_TEXT: FACS, CHO-K1 hDLL3 cells, 0.16 nM antibody
Response body: numeric value in MFI, unit text excluded.

Q. Answer with the recorded MFI of Hab006VL4VH1-hFc (scFv, part only; not given: scFv linker and human IgG1 Fc, V domains shown, not shown: another chain or arm of the molecule; a dimerising Fc or GST; small tags and cut ends) VL: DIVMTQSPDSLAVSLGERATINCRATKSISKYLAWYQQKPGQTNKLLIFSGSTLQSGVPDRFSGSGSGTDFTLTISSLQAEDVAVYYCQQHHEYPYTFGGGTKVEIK VH: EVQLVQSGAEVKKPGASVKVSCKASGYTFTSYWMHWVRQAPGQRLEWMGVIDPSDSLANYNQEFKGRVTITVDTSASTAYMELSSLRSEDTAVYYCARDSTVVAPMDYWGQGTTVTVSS only.
A. 4120

Q. Answer with the recorded MFI of Hab014VL2VH1-hFc (scFv, part only; not given: scFv linker and human IgG1 Fc, V domains shown, not shown: another chain or arm of the molecule; a dimerising Fc or GST; small tags and cut ends) VL: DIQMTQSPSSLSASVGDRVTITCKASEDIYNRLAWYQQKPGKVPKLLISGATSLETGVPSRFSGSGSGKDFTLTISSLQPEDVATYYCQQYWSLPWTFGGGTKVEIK VH: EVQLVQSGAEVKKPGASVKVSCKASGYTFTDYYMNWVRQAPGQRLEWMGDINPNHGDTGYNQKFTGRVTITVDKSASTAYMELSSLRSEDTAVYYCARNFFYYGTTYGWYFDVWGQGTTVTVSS only.
A. 2380

Q. Answer with the recorded MFI of Hab015VL4VH5a-hFc (scFv, part only; not given: VL-VH linker and human IgG1 Fc, V domains shown, not shown: another chain or arm of the molecule; a dimerising Fc or GST; small tags and cut ends) VL: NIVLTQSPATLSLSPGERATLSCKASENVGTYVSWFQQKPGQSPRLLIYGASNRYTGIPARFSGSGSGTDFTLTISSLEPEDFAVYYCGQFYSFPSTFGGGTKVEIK VH: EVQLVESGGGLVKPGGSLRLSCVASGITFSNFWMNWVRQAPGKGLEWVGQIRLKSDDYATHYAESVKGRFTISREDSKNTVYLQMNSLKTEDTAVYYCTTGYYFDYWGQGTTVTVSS only.
A. 870

Q. Answer with the recorded MFI of Hab008L3H2a-hFc (scFv, part only; not given: VL-VH linker and human IgG1 Fc, V domains shown, not shown: another chain or arm of the molecule; a dimerising Fc or GST; small tags and cut ends) VL: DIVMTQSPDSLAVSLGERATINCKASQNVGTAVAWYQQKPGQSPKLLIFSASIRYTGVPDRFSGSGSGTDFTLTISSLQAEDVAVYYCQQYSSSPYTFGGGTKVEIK VH: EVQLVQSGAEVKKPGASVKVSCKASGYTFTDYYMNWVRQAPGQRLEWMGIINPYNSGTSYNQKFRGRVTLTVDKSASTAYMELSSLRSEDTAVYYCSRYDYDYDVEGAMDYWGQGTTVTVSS only.
A. 715

Q. Answer with the recorded MFI of Hab008L3H5-hFc (scFv, part only; not given: scFv linker and human IgG1 Fc, V domains shown, not shown: another chain or arm of the molecule; a dimerising Fc or GST; small tags and cut ends) VL: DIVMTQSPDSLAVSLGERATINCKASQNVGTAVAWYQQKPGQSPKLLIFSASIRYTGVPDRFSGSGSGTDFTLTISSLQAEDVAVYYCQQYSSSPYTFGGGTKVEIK VH: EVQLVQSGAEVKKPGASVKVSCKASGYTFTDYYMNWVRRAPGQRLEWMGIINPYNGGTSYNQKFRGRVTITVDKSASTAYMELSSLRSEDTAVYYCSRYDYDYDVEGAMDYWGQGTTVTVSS only.
A. 671

Q. Answer with the recorded MFI of Hab006VL4VH2-hFc (scFv, part only; not given: scFv linker and human IgG1 Fc, V domains shown, not shown: another chain or arm of the molecule; a dimerising Fc or GST; small tags and cut ends) VL: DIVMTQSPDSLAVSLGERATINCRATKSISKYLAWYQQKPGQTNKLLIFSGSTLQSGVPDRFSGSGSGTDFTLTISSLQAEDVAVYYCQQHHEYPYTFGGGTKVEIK VH: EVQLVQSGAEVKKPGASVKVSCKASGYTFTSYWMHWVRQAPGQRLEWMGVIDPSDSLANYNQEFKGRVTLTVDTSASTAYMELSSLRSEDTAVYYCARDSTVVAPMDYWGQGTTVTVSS only.
A. 4700
